target-entity: T1, recombinant antigen of the extracellular region of CD47 (Sino Biological, Cat: 12283-H08H) (human, UniProt Q08722 19-139)
T1 construct: extracellular domain; also called recombinant CD47 extracellular region; CD47 recombinant protein
T1 sequence (Q08722 19-139 limits assumed): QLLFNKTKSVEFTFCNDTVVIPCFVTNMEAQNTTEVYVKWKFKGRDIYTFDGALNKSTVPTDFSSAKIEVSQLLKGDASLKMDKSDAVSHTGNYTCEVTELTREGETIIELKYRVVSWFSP
assay-name: Fortebio BLI, antibody on AHC sensor, CD47 extracellular region 100 nM;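 also: antibody held on the sensor through anti-human Fc capture, CD47 antigen in solution, association and dissociation phases each lasting 300 s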
endpoint: koff (s⁻¹)

binder	assay-result
hz140-Hm13/hz182-L (antibody, V domains shown) VH: EVQLVQSGAEVKKPGASVKVSCKASGYKFTNYVMSWVRQAPGQRLEWMGYINPYNDAIKYNEKFTGRVTITRDTSASTAYMELSSLRSEDTAVYYCAREGDFYANYGRLGFAYWGQGTLVTVSS VL: DIQMTQSPSSLSASVGDRVTITCRASQDISNYLNWYQQKPGKAPKLLLYYTSRLHSGVPSRFSGSGSGTDYTLTISSLQPEDFATYFCQQGAGRPYTFGGGTKVEIK	0.00163
hz140-Hm2/hz182-L (antibody, V domains shown) VH: QVQLVQSGAEVKKPGASVKVSCKASGYKFTSYVMHWVRQAPGQRLEWMGYINPYNDGIKYNEKFTGRVTITRDTSASTAYMELSSLRSEDTAVYYCAREGDFYANYGRLGFAYWGQGTLVTVSS VL: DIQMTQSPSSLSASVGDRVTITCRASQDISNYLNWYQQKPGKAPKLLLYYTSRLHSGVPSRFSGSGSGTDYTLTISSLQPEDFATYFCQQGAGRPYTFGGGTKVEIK	0.000541
